This listing pairs compounds with measured increase in bioluminescence signal on addition of FAAH versus buffer.
Study Target: FAAH (Homo sapiens, UniProt O00519)
Construct: purchased Cayman Chemical
Sequence (O00519 1-579): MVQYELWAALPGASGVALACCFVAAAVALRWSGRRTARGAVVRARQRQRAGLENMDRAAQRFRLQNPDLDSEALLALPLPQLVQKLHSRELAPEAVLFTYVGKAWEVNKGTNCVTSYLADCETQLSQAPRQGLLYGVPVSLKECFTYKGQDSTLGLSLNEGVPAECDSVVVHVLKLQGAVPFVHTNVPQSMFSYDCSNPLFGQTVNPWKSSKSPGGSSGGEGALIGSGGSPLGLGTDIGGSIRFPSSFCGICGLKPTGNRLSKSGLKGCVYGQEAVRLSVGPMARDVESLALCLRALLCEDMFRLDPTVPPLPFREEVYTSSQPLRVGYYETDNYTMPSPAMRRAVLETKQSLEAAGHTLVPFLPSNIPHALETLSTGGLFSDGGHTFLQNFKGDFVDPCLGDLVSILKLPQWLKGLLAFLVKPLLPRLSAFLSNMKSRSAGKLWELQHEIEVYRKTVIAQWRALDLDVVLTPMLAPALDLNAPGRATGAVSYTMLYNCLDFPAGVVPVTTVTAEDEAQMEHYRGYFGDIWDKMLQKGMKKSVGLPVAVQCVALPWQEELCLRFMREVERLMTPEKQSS
Experiment Description: In vitro FAAH assay: luciferin amide treated with recombinant FAAH, then R218K luciferase, bioluminescence
Format: biochemical
Conditions Used: 50 μM luciferin amide, 10 minutes at room temperature, R218K luciferase 3 μg/mL

Use the examples below as a reference point.
NC(=O)[C@H]1CSC(c2nc3ccc(O)cc3s2)=N1 = 269 fold
NC(=O)[C@H]1CSC(c2nc3cc4c(cc3s2)NCC4)=N1 = 8972 fold

So what's the measured increase in bioluminescence signal on addition of FAAH versus buffer for this one? CNc1ccc2nc(C3=N[C@@H](C(N)=O)CS3)sc2c1
167 fold

What do you get for CN1CCc2cc3nc(C4=N[C@@H](C(N)=O)CS4)sc3cc21 ?
139 fold
